# System: cell lines without dual amplification (OVSAHO, CAOV3, PEO1, OVCAR3)
# test_details: Volasertib IC50, cell viability, non-amplified cell lines
# Assay type: cell-based
# study_conditions: average of OVSAHO, read-out: IC50 in non-amplified cells
reported_endpoint: pIC50
The read-out pIC50 is expressed as -log10 of concentration in moles per litre.

// field: pIC50; key: CC[C@@H]1C(=O)N(C)c2cnc(Nc3ccc(C(=O)N[C@H]4CC[C@H](N5CCN(CC6CC6)CC5)CC4)cc3OC)nc2N1C(C)C ; value = 5.11

###

# Non Amp - AMP (POC) 10 uM per entry
# Tested on: ovarian cancer cells with (OVCAR8, OVCAR4) or without (OVSAHO, CAOV3) MYC-HSF1 amplification
# test_details: Epigenetic inhibitor drug screen, cell viability (Cell Titer Blue)
# Format: cell-based
# study_conditions: 10 uM, 48 hrs; average relative cell viability (vs 1% DMSO) of non-amplified cells (OVSAHO, CAOV3) minus that of MYC-HSF1 amplified cells (OVCAR8, OVCAR4); positive = greater response in amplified cells
Field: value (include unit after the number)

Worked cases, Non Amp - AMP (POC) 10 uM given:
O=C(Nc1c[nH]nc1-c1nc2ccc(CN3CCOCC3)cc2[nH]1)NC1CC1; −1.133 POC
O=C(NCc1ccccc1)c1c(/N=C/c2c(O)ccc3ccccc23)sc2c1CCCC2; 9.247 POC
CCCCCCCCCCCCCC(=S)NCCCC[C@H](NC(=O)OCc1ccccc1)C(=O)Nc1ccccc1; −0.8381 POC

Just so you know, measured Non Amp - AMP (POC) 10 uM for CCCC(CCC)C(=O)[O-].[Na+] [Valproic acid sodium salt] came out at −19.36 POC

Sample CC(C)(CNC(=O)c1cccc(-c2noc(C(F)(F)F)n2)c1)c1coc(-c2ccccc2)n1 ; Non Amp - AMP (POC) 10 uM observed: 0.5425 POC

For O=C(c1cccc(Cl)c1F)N1CCN(Cc2cccc(Nc3nccs3)n2)CC1 the molecule record lists Non Amp - AMP (POC) 10 uM as 10.66 POC

Non Amp - AMP (POC) 10 uM in this record for N[C@@H]1CCCN(c2c(/C=C3\SC(=O)NC3=O)cccc2-c2ccccc2)C1 : 10.38 POC

Lookup result for Nc1nc(Nc2ccc(S(N)(=O)=O)cc2)nn1C(=O)c1c(F)cccc1F ; measured Non Amp - AMP (POC) 10 uM: −15.24 POC
